This collection of values is drawn from the supplement of paper PMC9732359.

Experiment: protein stability index of a GFP-peptide fusion (yeast GPS) (PSI 1-4); higher = more stable; sorted into four equal gates, so the index is relative within each strain
Settings: doa10∆
Quick reference: protein stability index of the listed items.
Could you keep your reply to the number by itself?

# example entries with known answers
Ask: Item under review: AFGGLNFGGGNNTTPSS [YJL041W/NSP1] . Reported protein stability index?
Reply: 1.32

Ask: Any idea what its protein stability index is? The sequence is DDRVDKKFVSQIQKNVD [POP3]
Reply: 3.22

Ask: For the sequence SYLETLTALGKEKEKER [MED2] , what protein stability index is on record?
Reply: 2.57

Ask: Item KDTIVKEAEDKTLVALE [RPC37] has what recorded protein stability index?
Reply: 3.4

Ask: // lookup protein stability index for HYPEIEDLVDRIENPEK [RPP0]
Reply: 2.84

Further cases:
Ask: So what does the record say about protein stability index for FSVRTKDSNKDVVVEGL [RPL10] ?
Reply: 2.14

Ask: Reported protein stability index, sequence VLIKKGQSAGKLAAIVE [RPL14A] : ____
Reply: 2.99
